Provide the recorded GI50 for the entries that follow.
test system: LOX IMVI; experiment: NCI tumour cell line growth inhibition, 48 h
Structures can show the parent of a compound that is named as a salt. Calls of active or inactive are those of the source. Cut-off read from the data, not from the text of the source: active = GI50 up to about 1.1 µM and inactive = higher.

Input line: Requested read-out GI50, target or system LOX IMVI, entry COC(=O)C1Cc2c([nH]c3ccccc23)C=N1 (centres undefined)
Output line: 51.8 µM (inactive)

Input line: Another molecule to check: C/C(=N/NC(=S)Nc1ccc([N+](=O)[O-])cc1)c1cccc(/C(C)=N\NC(=S)Nc2ccc([N+](=O)[O-])cc2)n1
Output line: 0.313 µM (active)

Input line: Another molecule to check: COc1ccc(C2=C(OC(C)=O)c3cccn3-c3ccccc3S2)cc1
Output line: 4.55 µM (inactive)

Input line: Another molecule to check: CC(=O)/C(=C/NC(=S)Nc1ccc(Cl)c(Cl)c1)C(=O)Nc1ccccc1C
Output line: 34 µM (inactive)

Input line: Another molecule to check: C[C@]12CCC3c4ccc(O)cc4CC[C@H]3C1CC(=O)NC2=O (some centres undefined)
Output line: > 10 µM (inactive)

Input line: Another molecule to check: CO[C@H]1C[C@H](O[C@H]2CC[C@@]3(C)[C@H](CC[C@@H]4[C@@H]3CC[C@]3(C)[C@@H](C5=CC(=O)OC5)CC[C@]43O)C2)O[C@H](C)[C@H]1O
Output line: < 0.01 µM (active)

Input line: Another molecule to check: Cc1cc(N(CCC#N)CCC#N)ccc1/C=C(\NC(=O)/C=C/c1ccccc1)C(=O)Nc1ccccc1Cl
Output line: > 100 µM (inactive)

Input line: Another molecule to check: Cc1ccc(-c2cc(-c3ccc(Cl)cc3)nc(/N=C3\C(=O)N(CN4CCOCC4)c4ccccc43)n2)cc1
Output line: 24.2 µM (inactive)

Input line: Another molecule to check: C=CC1(C)CCC2=C(CCC3C(C)(C(=O)OC)CCCC23C)C1=O (centres undefined)
Output line: 18.5 µM (inactive)

Input line: Another molecule to check: CCCCOC(=O)CC(CC(=O)OCCCC)(OC(C)=O)C(=O)OCCCC [ACETYLTRIBUTYL CITRATE]
Output line: 150 µM (inactive)

Input line: Another molecule to check: CCN(CC)CCCNc1ncc(C)c2c1c1ccc3c(O)cccc3c1n2C
Output line: 1.29 µM (inactive)

Input line: Another molecule to check: C=CCCC1(O)C(O)C(CO)O[C@H](O[C@@]2(CO)OC(CO)C(O)C2O)C1O (some centres undefined)
Output line: > 100 µM (inactive)

Input line: Another molecule to check: CN1Cc2cc3c(cc2-c2ccccc21)OCO3
Output line: > 100 µM (inactive)

Input line: Another molecule to check: COc1cc(C2C3=C(N=C4SC(C(C)=O)=C(C)N42)c2ccccc2CC3)cc(OC)c1OC (centres undefined)
Output line: > 100 µM (inactive)

Input line: Another molecule to check: OC[P+](CO)(CO)C12CC3CC(CC(C3)C1)C2
Output line: 4.67 µM (inactive)

Input line: Another molecule to check: CCCCC(=O)/C=c1/cc(C)[nH]c2cccc3cnn1c32
Output line: > 100 µM (inactive)

Input line: Another molecule to check: CNC(=S)N/N=C(\C)c1nc2cccnc2[nH]1
Output line: 43.6 µM (inactive)

Input line: Another molecule to check: O=C(N/C(=C/c1ccc(Cl)cc1)c1nc2ccccc2c(=O)n1Nc1ccc([N+](=O)[O-])cc1[N+](=O)[O-])c1ccccc1
Output line: > 100 µM (inactive)

Input line: Another molecule to check: CN(c1ccc(Cl)cc1)S(=O)(=O)c1ccc([N+](=O)[O-])cc1
Output line: > 100 µM (inactive)

----------
tested on: K562; experiment: NCI tumour cell line growth inhibition, 48 h
Activity calls are given as the source filed them. No stated cut-off is given here; in the data, active = GI50 up to about 1.1 µM and inactive = higher.
Your reply should match one of these outcome classes. label 1 = active, label 0 = inactive

Input line: In this assay, the call recorded for O=S(=O)(O)c1ccc2cc(/N=N\c3cc(S(=O)(=O)O)c4cccnc4c3O)ccc2c1 was what?
Output line: label 0

Input line: Another compound to check: COc1ccc(N(CC(=O)O)S(=O)(=O)c2ccccc2)cc1
Output line: label 0

Input line: Another compound to check: CSS(C)(=O)=O
Output line: label 0

Input line: Another compound to check: CC(=O)[C@H]1CC[C@@H]2[C@]1(C)CC=C1[C@]23C=C[C@]2(C[C@@H](O)CC[C@]12C)C(C(=O)O)C3C(=O)O (stereo not given in full)
Output line: label 0

Input line: Another compound to check: CC(C)=CCc1c(O)c(CC2=C(O)C(CC=C(C)C)(C(=O)C(C)C)C(O)=C(C)C2=O)c(O)c(C(=O)C(C)C)c1O (stereo not given)
Output line: label 0

Input line: Another compound to check: O=S(=O)(N/N=C1\CC2CCC1C2)c1ccccc1 (stereo not given)
Output line: label 0

Input line: Another compound to check: C/C(=N\n1c(Cc2ccccc2)n[nH]c1=O)c1ccccc1
Output line: label 0

Input line: Another compound to check: O=C1C2C3CC(C4C5C=CC(C5)C34)C2C2C3CC(C12)C1C2C=CC(C2)C31 (stereo not given)
Output line: label 0

Input line: Another compound to check: O=C1O/C(=C/c2ccccc2)C(c2ccccc2)=C1O
Output line: label 0

Input line: Another compound to check: Oc1c(N2CCOCC2)cc(-c2cc(N3CCOCC3)c(O)c3ccccc23)c2ccccc12
Output line: label 0

Input line: Another compound to check: C[C@]12CC[C@H](OC3OC(CO)C(O)C(O)C3O)C[C@H]1CC[C@@H]1[C@@H]2CC[C@]2(C)[C@@H](C3=CCOC3=O)CC[C@]12O (stereo not given in full)
Output line: label 0

Input line: Another compound to check: CC(C)OC(=O)OCSc1ccccc1/N=C/c1cccc([N+](=O)[O-])c1
Output line: label 0

Input line: Another compound to check: O=C(O)C(Cc1cccs1)NC(=O)C(F)(F)F (stereo not given)
Output line: label 0

Input line: Another compound to check: CN(c1ccc(Cl)cc1)S(=O)(=O)c1ccc([N+](=O)[O-])cc1
Output line: label 0

Input line: Another compound to check: COc1ccc(/C=C/c2cc(O)cc(OC3OC(CO)C(O)C(O)C3O)c2)cc1O (stereo not given)
Output line: label 0

Input line: Another compound to check: N#CC(C(=O)O)C(c1c(Cl)cccc1Cl)C(C#N)C(=O)O (stereo not given)
Output line: label 0

Input line: Another compound to check: CCOC(=O)c1c(-c2ccc(OC)cc2)c(C#N)c(=S)n(C2OC(COC(C)=O)C(OC(C)=O)C(OC(C)=O)C2OC(C)=O)c1C (stereo not given)
Output line: label 0

Input line: Another compound to check: COc1ccc(N2C(=O)C(Cl)C2c2cc3cc(Br)ccc3nc2Cl)cc1 (stereo not given)
Output line: label 0

Input line: Another compound to check: COc1ccc(C(c2ccc(C(C)C)cc(=O)c2O)c2ccc3cccnc3c2O)cc1 (stereo not given)
Output line: label 1

Input line: Another compound to check: COC(=O)C1Cc2c([nH]c3ccccc23)C=N1 (stereo not given)
Output line: label 0

----------
Provide the recorded GI50 for the entries that follow.
test system: SK-OV-3; experiment: NCI tumour cell line growth inhibition, 48 h
Calls of active or inactive are those of the source. Cut-off read from the data, not from the text of the source: active = GI50 up to about 1.1 µM and inactive = higher.

Input line: Consider the molecule COc1ccc(N(CC(=O)O)S(=O)(=O)c2ccccc2)cc1 and give its measured GI50.
Output line: > 100 µM (inactive)

Input line: Another molecule to check: COC(=O)CNS(=O)(=O)c1ccc(-c2c3nc(c(-c4ccc(S(=O)(=O)NCC(=O)OC)cc4)c4ccc([nH]4)c(-c4ccc(S(=O)(=O)NCC(=O)OC)cc4)c4nc(c(-c5ccc(S(=O)(=O)NCC(=O)OC)cc5)c5ccc2[nH]5)C=C4)C=C3)cc1
Output line: > 100 µM (inactive)

Input line: Another molecule to check: CCCCCCc1cc2cc(-c3csc(-c4ccc(OC)cc4)n3)c(=O)oc2cc1O
Output line: 15.2 µM (inactive)

Input line: Another molecule to check: CC(=O)OC1COC(N2CCc3ccccc32)C(OC(C)=O)C1OC(C)=O (stereo not given)
Output line: > 100 µM (inactive)

Input line: Another molecule to check: N#CC[C@@H](O)COc1ccccc1
Output line: > 100 µM (inactive)

Input line: Another molecule to check: O=C(CC1Sc2ccccc2NC1=O)Nc1ccc(Cl)cc1 (stereo not given)
Output line: > 100 µM (inactive)

Input line: Another molecule to check: Cc1nc2ccccc2n1CCc1nc2ccccc2[nH]1
Output line: > 100 µM (inactive)

Input line: Another molecule to check: Cc1ccccc1C1=[N+]([O-])c2ccc(Cl)cc2C1=O
Output line: 26.4 µM (inactive)

Input line: Another molecule to check: O=[N+]([O-])c1ccc(C(Cl)C(Cl)c2ccc(C(Cl)C(Cl)c3ccc([N+](=O)[O-])cc3[N+](=O)[O-])cc2)c([N+](=O)[O-])c1 (stereo not given)
Output line: 22.8 µM (inactive)

Input line: Another molecule to check: O=C1N=CN=C2C=CC(Cl)=C(I)C12 (stereo not given)
Output line: 49.3 µM (inactive)

Input line: Another molecule to check: CC1=C(C(=O)CC(=O)C(=O)Nc2cccc(Cl)c2C)Sc2ccccc2N1
Output line: > 100 µM (inactive)

Input line: Another molecule to check: CC1(C)CCC2=C(O1)c1ccccc1C(=O)C2=O [LAPACHONE]
Output line: 1.85 µM (inactive)

Input line: Another molecule to check: OC[P+](CO)(CO)C12CC3CC(CC(C3)C1)C2
Output line: > 100 µM (inactive)

Input line: Another molecule to check: COc1ccc(/C=C/c2cc(O)cc(OC3OC(CO)C(O)C(O)C3O)c2)cc1O (stereo not given)
Output line: > 100 µM (inactive)

Input line: Another molecule to check: CCCNC(=O)OCc1c(COC(=O)NCCC)c(-c2ccc(Cl)c(Cl)c2)n2c1CCC2
Output line: 2.81 µM (inactive)

Input line: Another molecule to check: CN(C)c1ccc(/C=C2\Oc3ccccc3C2=O)cc1
Output line: > 100 µM (inactive)

Input line: Another molecule to check: COc1cc(OC2OC(CO)C(O)C(O)C2O)c2c(O)c3c(=O)cc(C)oc3cc2c1 (stereo not given)
Output line: > 100 µM (inactive)

Input line: Another molecule to check: C=CCN1C(=O)CC1N(CC=C)S(=O)(=O)c1ccc(C)cc1 (stereo not given)
Output line: > 100 µM (inactive)

Input line: Another molecule to check: O=C(CC1C(=O)Nc2ccccc2[S+]1[O-])Nc1ccccc1 (stereo not given)
Output line: 26.9 µM (inactive)

Input line: Another molecule to check: N#C/C(=C1/c2cc([N+](=O)[O-])ccc2-c2c1cc([N+](=O)[O-])cc2[N+](=O)[O-])N1CCCCC1
Output line: 93.1 µM (inactive)
